These measurements were taken from patent US20250170248A1.

Measured DC50 accompanies every entry in the list below.
Biological target: SMARCA2 (Homo sapiens, UniProt P51531)
Sequence (P51531 whole entry): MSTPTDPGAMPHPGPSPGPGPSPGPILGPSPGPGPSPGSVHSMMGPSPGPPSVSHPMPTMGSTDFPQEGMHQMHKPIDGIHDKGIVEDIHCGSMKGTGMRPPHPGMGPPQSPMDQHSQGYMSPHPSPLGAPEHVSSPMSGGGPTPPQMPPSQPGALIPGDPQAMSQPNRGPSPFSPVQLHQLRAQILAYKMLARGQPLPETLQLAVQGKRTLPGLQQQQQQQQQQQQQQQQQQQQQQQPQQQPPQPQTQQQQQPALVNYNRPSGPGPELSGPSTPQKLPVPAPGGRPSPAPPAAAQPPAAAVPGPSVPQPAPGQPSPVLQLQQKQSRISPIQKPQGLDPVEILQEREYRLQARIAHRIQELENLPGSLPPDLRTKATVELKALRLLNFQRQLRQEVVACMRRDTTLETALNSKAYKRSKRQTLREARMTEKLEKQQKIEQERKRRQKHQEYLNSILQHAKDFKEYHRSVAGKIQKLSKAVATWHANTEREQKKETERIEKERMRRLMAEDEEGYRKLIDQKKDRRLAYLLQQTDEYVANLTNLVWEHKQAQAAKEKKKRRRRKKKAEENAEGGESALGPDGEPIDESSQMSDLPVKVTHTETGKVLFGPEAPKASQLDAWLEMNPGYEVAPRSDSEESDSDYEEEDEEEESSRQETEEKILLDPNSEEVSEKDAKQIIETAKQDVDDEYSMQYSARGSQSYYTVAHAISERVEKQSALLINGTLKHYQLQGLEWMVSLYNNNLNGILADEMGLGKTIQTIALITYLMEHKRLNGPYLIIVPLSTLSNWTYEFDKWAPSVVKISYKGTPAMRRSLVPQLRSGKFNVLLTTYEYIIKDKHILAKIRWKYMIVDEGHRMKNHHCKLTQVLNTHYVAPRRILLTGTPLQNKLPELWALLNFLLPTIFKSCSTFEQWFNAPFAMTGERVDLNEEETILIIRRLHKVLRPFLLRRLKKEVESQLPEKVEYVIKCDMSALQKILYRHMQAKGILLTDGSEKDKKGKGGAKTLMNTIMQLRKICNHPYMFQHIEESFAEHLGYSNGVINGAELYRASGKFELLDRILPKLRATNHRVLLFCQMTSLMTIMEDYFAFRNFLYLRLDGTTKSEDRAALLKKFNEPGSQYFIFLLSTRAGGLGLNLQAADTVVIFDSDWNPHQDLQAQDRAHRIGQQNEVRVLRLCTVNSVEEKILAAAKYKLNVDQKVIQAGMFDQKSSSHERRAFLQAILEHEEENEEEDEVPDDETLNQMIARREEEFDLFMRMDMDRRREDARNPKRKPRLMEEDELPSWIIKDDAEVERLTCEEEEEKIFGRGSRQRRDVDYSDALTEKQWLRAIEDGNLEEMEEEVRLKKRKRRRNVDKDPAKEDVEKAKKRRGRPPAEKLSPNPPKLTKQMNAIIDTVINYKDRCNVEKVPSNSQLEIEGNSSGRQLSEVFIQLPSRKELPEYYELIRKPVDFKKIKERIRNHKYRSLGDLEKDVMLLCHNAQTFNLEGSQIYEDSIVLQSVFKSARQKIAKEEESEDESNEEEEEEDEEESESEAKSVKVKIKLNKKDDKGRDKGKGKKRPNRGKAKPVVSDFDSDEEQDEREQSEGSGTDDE
Experiment: MSD SMARCA2 degradation in A549 cell line
Format: cell-based
Settings: A549 cells, 24 h, read-out: SMARCA2 MSD A549 degradation 24 h: Average external-Abs DC50

Lab note: measured DC50 of `C#Cc1ccc(CNC(=O)[C@@H]2C[C@@H](O)CN2C(=O)[C@@H](NC(=O)N2CC3(CC(N4CCC(c5cnc(N6CCc7[nH]c8nnc(-c9ccccc9O)cc8c7[C@H]6C)s5)CC4)C3)C2)C(C)(C)C)cc1` was 10 to 50 nM

get_value(item= C#Cc1ccc([C@@H](C)NC(=O)[C@@H]2C[C@@H](O)CN2C(=O)C(c2cc(N3CCC(CN4CCC(N5CCC(N6CCN7c8cc(-c9ccccc9O)nnc8NC[C@H]7C6)CC5)CC4)CC3)no2)C(C)C)c(Cl)c1 (stereo partly shown) , readout=DC50) returns 50 to 100 nM

Data point: C#Cc1cnc(CNC(=O)[C@@H]2C[C@@H](O)CN2C(=O)[C@@H](NC(=O)[C@H]2CC3(C2)C[C@H](N2CCC(N4CCC(N5CCN6c7cc(-c8ccccc8O)nnc7NC[C@H]6C5)CC4)CC2)C3)C(C)(C)C)c(OC)c1 (single isomer, unassigned) [I-330] ; DC50 = > 100 nM

Further cases:
The compound listed as C#Cc1ccc(CNC(=O)[C@@H]2C[C@@H](O)CN2C(=O)[C@@H](NC(=O)[C@H]2CC3(C2)C[C@H](c2cnc(N4CCC(N5CCN6c7cc(-c8ccccc8O)nnc7NC[C@H]6C5)CC4)nc2)C3)C(C)(C)C)cc1 (stereo partly shown) [I-302] shows DC50 equal to 10 to 50 nM

Lookup result for `C#Cc1ccc(CNC(=O)[C@@H]2C[C@@H](O)CN2C(=O)[C@@H](NC(=O)N2CCN(C[C@H]3CC[C@H](N4CCc5[nH]c6nnc(-c7ccccc7O)cc6c5[C@H]4C)CC3)CC2)C(C)(C)C)cc1` ; measured DC50: > 100 nM

Noted for C#Cc1ccc(CNC(=O)[C@@H]2C[C@@H](O)CN2C(=O)[C@@H](NC(=O)C2CCN(CC3CCC(N4CCC(N5CCc6[nH]c7nnc(-c8ccccc8O)cc7c6[C@H]5C)CC4)CC3)CC2)C(C)(C)C)cc1 (stereo partly shown) : its DC50 reads > 100 nM

Reported DC50 for `C#Cc1ccc(CNC(=O)[C@@H]2C[C@@H](O)CN2C(=O)[C@@H](NC(=O)N2CCN(CC3CCN(c4cnc(N5CCc6[nH]c7nnc(-c8ccccc8O)cc7c6[C@H]5C)nc4)CC3)CC2)C(C)(C)C)cc1` was > 100 nM

get_value(item= Cc1ncsc1-c1ccc(CNC(=O)[C@@H]2C[C@@H](O)CN2C(=O)[C@@H](NC(=O)C2(F)CC2)C(C)(C)C)c(O[C@H]2CC[C@H](N3CCC(c4cnc(N5CCc6[nH]c7nnc(-c8ccccc8O)cc7c6[C@H]5C)nc4)CC3)CC2)c1 (single isomer, unassigned) , readout=DC50) returns < 10 nM
